The entries below are paired with their reported Tmax.
experiment: Tmax in Sprague-Dawley rat at 10 umol/kg, po; type: ADME, organism-based; conditions: in vivo
# output: bare number, implied unit min

INSERT INTO assay_data (input_smiles, experimental_value) VALUES
  ('Cc1onc(-c2c(Cl)cccc2Cl)c1NC(=O)OCc1c(F)cccc1Cl', 19.8);

Could you now consider this next compound?
Field Tmax (entry Cc1onc(-c2c(Cl)cccc2Cl)c1CC(=O)NCc1ccc(OCC(F)(F)F)nc1 ) reads 18

* * *

Examples of compounds with documented IC50 follow.
target: Sodium channel protein type 9 subunit alpha (Homo sapiens); assay: Inhibition of Nav1.7 by cell based whole-cell voltage clamp electrophysiology assay
Write the answer as a number in nM, unit excluded.

A selection of reference data follows.
INSERT INTO measurements (input_smiles, experimental_value) VALUES
  ('Cc1onc(-c2c(Cl)cccc2Cl)c1NC(=O)NCc1ccc(-n2cccn2)cc1', 263),
  ('O=C(Nc1conc1-c1c(Cl)cccc1Cl)OCc1c(F)cccc1Cl', 12600),
  ('Cc1cccc(C)c1-c1noc(C)c1NC(=O)NCc1c(F)cccc1Cl', 38),
  ('Cc1onc(-c2ccccc2Cl)c1N(C)C(=O)NCc1ccc(OC2CCOCC2)nc1', 3630),
  ('Cc1cccc(C)c1-c1noc(C)c1NC(=O)NCc1ccc(OC(C)C)nc1', 209);

Entry Cc1onc(-c2c(Cl)cccc2Cl)c1N(C)C(=O)OCc1c(F)cccc1Cl ; IC50 = 302

The compound identified as Cc1cccc(C)c1-c1noc(C)c1NC(=O)OCc1c(F)cccc1Cl registered its IC50 at 10.5

// IC50 lookup, compound = Cc1cccc(C)c1-c1noc(C)c1CC(=O)NCc1cccc(OCCOCC(F)(F)F)n1 , result: 58.9

Data point: COCc1onc(-c2c(Cl)cccc2Cl)c1NC(=O)OCc1ccccc1Cl ; IC50 = 331

Sample Cc1onc(-c2c(Cl)cccc2Cl)c1N(C)C(=O)OCc1ccc(OC(C)C)nc1 ; IC50 observed: 224

// recorded IC50 for Cc1onc(-c2c(Cl)cccc2Cl)c1NC(=O)OCc1ccc(OC2CCCC2)nc1 : 28.8

* * *

assay: Solubility of the compound; format: physicochemical
This listing pairs molecules with measured solubility.

INSERT INTO results (input_smiles, experimental_value) VALUES
  ('Cc1onc(-c2c(Cl)cccc2Cl)c1CC(=O)NCc1ccc(OCC(F)(F)F)nc1', '36 µM');

Next molecule, solubility to be filled in.
Entry Cc1onc(-c2c(Cl)cccc2Cl)c1NC(=O)OCc1c(F)cccc1Cl , solubility reported as < 1 µM

* * *

target: Sodium channel protein type 5 subunit alpha (Homo sapiens, UniProt Q14524); test: Inhibition of Nav1.5 by cell based whole-cell voltage clamp electrophysiology assay
Sequence (Q14524 whole entry): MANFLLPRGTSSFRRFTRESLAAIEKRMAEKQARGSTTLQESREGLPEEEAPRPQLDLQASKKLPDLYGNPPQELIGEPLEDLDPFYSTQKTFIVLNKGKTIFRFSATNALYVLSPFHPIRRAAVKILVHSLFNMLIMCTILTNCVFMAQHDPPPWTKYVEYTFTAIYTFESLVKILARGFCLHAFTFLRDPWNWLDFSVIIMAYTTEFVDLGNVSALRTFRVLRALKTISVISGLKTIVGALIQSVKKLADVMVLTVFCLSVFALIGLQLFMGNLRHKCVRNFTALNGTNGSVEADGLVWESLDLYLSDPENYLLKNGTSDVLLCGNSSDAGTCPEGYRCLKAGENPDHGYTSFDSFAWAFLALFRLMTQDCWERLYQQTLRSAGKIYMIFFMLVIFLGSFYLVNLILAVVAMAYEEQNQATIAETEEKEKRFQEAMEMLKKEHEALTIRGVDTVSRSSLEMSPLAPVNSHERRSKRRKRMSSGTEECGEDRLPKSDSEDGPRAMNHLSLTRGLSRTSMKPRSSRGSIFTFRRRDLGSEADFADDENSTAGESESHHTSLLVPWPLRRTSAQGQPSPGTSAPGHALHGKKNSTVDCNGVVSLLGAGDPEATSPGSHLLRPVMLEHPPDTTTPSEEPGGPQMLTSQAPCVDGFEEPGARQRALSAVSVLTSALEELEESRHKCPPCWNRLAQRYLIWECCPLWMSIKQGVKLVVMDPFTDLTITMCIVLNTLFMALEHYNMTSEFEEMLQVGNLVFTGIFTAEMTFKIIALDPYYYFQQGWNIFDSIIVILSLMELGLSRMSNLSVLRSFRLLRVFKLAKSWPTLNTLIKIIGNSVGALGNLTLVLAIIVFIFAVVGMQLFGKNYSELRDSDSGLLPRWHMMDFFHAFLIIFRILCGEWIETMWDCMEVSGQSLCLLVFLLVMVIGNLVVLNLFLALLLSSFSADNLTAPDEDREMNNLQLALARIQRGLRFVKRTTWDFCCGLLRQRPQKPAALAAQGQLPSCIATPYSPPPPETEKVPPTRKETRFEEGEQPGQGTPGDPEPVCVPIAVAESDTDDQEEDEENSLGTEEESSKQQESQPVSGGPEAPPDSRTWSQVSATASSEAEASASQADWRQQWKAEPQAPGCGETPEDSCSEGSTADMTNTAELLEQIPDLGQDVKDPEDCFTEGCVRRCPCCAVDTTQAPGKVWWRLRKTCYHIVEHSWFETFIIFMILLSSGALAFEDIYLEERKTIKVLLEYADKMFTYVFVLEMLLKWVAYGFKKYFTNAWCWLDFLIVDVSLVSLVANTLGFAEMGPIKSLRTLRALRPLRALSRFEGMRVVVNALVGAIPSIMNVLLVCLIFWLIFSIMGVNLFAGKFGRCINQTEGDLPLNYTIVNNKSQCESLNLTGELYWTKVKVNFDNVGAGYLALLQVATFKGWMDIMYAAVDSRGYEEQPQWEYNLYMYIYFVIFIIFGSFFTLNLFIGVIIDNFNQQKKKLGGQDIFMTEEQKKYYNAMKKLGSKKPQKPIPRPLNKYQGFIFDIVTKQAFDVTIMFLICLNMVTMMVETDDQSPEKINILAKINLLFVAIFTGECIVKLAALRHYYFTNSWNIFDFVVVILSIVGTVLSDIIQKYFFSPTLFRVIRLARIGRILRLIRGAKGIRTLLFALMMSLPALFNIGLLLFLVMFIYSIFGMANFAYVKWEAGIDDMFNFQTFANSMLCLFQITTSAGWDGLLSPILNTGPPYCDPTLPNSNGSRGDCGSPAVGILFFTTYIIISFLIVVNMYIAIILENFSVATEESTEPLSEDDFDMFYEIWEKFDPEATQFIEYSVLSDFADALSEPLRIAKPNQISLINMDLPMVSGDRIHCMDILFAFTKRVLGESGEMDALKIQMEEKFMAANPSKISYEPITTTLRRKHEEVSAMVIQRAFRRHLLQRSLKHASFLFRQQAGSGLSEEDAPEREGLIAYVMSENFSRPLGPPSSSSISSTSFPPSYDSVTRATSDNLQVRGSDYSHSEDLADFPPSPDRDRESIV
pIC50: −log10 of the molar value.
ATTRIBUTE_MEASURED: pIC50

Lookup result for Cc1onc(-c2ccccc2Cl)c1N(C)C(=O)NCc1ccc(OC2CCOCC2)nc1 ; measured pIC50: < 4.48

Lab note: Cc1cccc(C)c1-c1noc(C)c1NC(=O)NCc1ccc(OC(C)C)nc1 gave pIC50 of 4.70

// sample Cc1onc(-c2c(Cl)cncc2Cl)c1NC(=O)NCc1ccc(OC(C)C)nc1 , its pIC50 was < 4.48

Entry under test: Cc1onc(-c2c(Cl)cccc2Cl)c1NC(=O)OCc1cccc(N(C)C)c1 . Its pIC50 was < 4.59

Quick note, pIC50 for Cc1onc(-c2c(Cl)cccc2Cl)c1N(C)C(=O)OCc1ccc(OC(C)C)nc1 landed at < 4.54

* * *

test: Intrinsic clearance in human liver microsomes; format: ADME, Microsome
ATTRIBUTE_MEASURED: microsomal CLint (µL/min/mg)
Quick note: give the figure in µL/min/mg, leave out the unit.

Lab note: measured microsomal CLint of Cc1onc(-c2c(Cl)cccc2Cl)c1CC(=O)NCc1ccc(OCC(F)(F)F)nc1 was 116

* * *

assay: Clearance in Sprague-Dawley rat at 3 umol/kg, iv; format: ADME, organism-based; conditions: in vivo
ATTRIBUTE_MEASURED: clearance (mL/min/kg)
Report the value in mL/min/kg with no unit label.

INSERT INTO measurements (input_smiles, experimental_value) VALUES
  ('Cc1onc(-c2c(Cl)cccc2Cl)c1CC(=O)NCc1ccc(OCC(F)(F)F)nc1', 36);

With those in mind, consider the next compound.
Noted for Cc1onc(-c2c(Cl)cccc2Cl)c1NC(=O)OCc1c(F)cccc1Cl : its clearance reads 45

* * *

target: Sodium channel protein type 9 subunit alpha (Homo sapiens, UniProt Q15858); test: Inhibition of Nav1.7 by cell based whole-cell voltage clamp electrophysiology assay
Sequence (Q15858 whole entry): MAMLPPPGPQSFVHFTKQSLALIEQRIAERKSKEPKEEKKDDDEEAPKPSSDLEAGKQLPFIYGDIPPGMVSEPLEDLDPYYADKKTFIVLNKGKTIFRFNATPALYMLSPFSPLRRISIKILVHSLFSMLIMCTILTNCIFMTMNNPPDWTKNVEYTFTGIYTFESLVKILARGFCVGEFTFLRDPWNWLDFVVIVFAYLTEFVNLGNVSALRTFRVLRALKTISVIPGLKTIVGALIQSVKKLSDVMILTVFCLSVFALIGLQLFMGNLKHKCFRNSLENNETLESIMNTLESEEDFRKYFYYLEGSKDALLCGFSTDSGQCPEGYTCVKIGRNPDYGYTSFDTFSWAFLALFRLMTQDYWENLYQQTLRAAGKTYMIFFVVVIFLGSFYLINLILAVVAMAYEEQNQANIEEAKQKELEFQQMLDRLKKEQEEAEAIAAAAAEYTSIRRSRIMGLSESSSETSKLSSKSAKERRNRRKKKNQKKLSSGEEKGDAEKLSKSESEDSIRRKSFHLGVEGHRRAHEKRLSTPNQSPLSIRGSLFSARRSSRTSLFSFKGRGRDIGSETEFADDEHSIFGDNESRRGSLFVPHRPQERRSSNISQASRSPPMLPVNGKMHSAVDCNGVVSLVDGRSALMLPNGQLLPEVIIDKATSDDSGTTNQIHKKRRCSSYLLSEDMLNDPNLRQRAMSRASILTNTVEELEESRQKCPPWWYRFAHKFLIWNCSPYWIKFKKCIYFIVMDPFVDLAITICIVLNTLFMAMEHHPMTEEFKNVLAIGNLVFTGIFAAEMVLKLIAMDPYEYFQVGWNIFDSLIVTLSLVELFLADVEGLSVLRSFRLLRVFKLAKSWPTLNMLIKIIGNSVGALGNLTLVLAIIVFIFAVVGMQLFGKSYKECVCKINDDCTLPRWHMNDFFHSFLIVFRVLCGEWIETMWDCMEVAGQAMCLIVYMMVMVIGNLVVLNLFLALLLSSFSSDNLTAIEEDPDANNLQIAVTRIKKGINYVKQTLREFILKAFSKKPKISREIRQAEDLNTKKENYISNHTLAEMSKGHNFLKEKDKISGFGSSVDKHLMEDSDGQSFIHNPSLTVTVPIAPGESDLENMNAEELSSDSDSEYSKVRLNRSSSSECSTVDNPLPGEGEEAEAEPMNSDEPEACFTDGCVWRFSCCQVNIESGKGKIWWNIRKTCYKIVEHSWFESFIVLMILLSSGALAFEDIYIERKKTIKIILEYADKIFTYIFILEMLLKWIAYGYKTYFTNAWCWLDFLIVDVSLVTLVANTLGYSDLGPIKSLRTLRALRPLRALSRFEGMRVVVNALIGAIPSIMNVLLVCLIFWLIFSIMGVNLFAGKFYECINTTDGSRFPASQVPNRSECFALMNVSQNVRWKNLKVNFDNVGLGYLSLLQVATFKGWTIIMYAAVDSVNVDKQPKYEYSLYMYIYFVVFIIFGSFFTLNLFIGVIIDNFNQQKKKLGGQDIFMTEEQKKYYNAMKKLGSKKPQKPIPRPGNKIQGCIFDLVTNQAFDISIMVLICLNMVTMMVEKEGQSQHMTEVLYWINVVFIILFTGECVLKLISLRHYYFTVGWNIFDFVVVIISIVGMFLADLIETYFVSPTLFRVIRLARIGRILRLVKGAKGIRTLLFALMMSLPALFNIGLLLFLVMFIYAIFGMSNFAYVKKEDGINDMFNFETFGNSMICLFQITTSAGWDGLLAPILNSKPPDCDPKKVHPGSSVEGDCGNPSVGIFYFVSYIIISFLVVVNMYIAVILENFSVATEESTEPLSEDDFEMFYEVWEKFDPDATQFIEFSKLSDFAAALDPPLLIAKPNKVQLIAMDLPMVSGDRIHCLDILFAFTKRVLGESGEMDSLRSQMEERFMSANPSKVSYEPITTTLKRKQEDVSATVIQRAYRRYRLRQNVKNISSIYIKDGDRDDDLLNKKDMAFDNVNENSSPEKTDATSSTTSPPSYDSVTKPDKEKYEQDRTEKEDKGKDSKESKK
Threshold 0.07 µM: IC50 strictly smaller gives 1 (yes), otherwise 0 (no).

INSERT INTO assay_data (input_smiles, assay_target, qualitative_label) VALUES
  ('Cc1onc(-c2c(Cl)cccc2Cl)c1N(C)C(=O)NCc1ccc(OC2CCOCC2)nc1', 'Sodium channel protein type 9 subunit alpha (Homo sapiens, UniProt Q15858)', '0 (no)'),
  ('Cc1onc(-c2c(F)cccc2Cl)c1NC(=O)OCc1c(F)cccc1Cl', 'Sodium channel protein type 9 subunit alpha (Homo sapiens, UniProt Q15858)', '0 (no)'),
  ('Cc1onc(-c2c(Cl)cccc2Cl)c1NC(=O)OCc1ccccc1Cl', 'Sodium channel protein type 9 subunit alpha (Homo sapiens, UniProt Q15858)', '1 (yes)');

Does Cc1onc(-c2c(Cl)cncc2Cl)c1NC(=O)NCc1ccc(OC(C)C)nc1 have IC50 strictly under 0.07 µM?
0 (no)

IC50 strictly < 0.07 µM for this molecule? Cc1onc(-c2c(Cl)cccc2Cl)c1NC(=O)NCc1c(F)cccc1Cl
0 (no)

Bench note: check whether Cc1onc(-c2c(Cl)cccc2Cl)c1CC(=O)NCc1ccc(-n2cccn2)cc1 shows IC50 below 0.07 µM
0 (no)

Is IC50 strictly under 0.07 µM for the entry CCc1onc(-c2c(Cl)cccc2Cl)c1NC(=O)OCc1c(F)cccc1Cl ?
1 (yes)

hey, is IC50 for Cc1onc(-c2c(Cl)cccc2Cl)c1NC(=O)OCc1c(F)cccc1Cl lower than 0.07 µM or not?
1 (yes)

State whether 0.07 µM exceeds IC50 recorded for Cc1onc(-c2c(Cl)cccc2Cl)c1NC(=O)OCc1cc(Cl)ccc1Cl .
0 (no)

Here's an entry: Cc1onc(-c2c(Cl)cccc2Cl)c1NC(=O)OCc1cccc(N(C)C)c1 . Is its IC50 below 0.07 µM?
0 (no)

* * *

assay: Terminal half life in Sprague-Dawley rat at 3 umol/kg, iv; type: ADME, organism-based; settings: in vivo, read-out: beta t1/2 (converted)
ATTRIBUTE_MEASURED: half-life (h)
Give just the numeric value; h need not be written.

INSERT INTO measurements (input_smiles, experimental_value) VALUES
  ('Cc1onc(-c2c(Cl)cccc2Cl)c1NC(=O)OCc1c(F)cccc1Cl', 1.4);

// below: half-life requested for another molecule
Noted for Cc1onc(-c2c(Cl)cccc2Cl)c1CC(=O)NCc1ccc(OCC(F)(F)F)nc1 : its half-life reads 0.6

* * *

assay: Oral bioavailability in Sprague-Dawley rat at 10 umol/kg; format: ADME, organism-based; settings: in vivo
Quick list: bioavailability per entry.

INSERT INTO assay_data (input_smiles, experimental_value) VALUES
  ('Cc1onc(-c2c(Cl)cccc2Cl)c1CC(=O)NCc1ccc(OCC(F)(F)F)nc1', '19%');

# next molecule below
The reported value for Cc1onc(-c2c(Cl)cccc2Cl)c1NC(=O)OCc1c(F)cccc1Cl in terms of bioavailability is 0.3%

* * *

molecular target: Sodium channel protein type 5 subunit alpha (Homo sapiens); test: Inhibition of Nav1.5 by cell based whole-cell voltage clamp electrophysiology assay
ATTRIBUTE_MEASURED: pIC50
By convention, pIC50 is the negative base-10 log of a molar concentration.

Examples with answers:
INSERT INTO measurements (input_smiles, assay_target, attribute_measured, experimental_value) VALUES
  ('Cc1onc(-c2c(Cl)cccc2Cl)c1N(C)C(=O)NCc1ccc(OC2CCOCC2)nc1', 'Sodium channel protein type 5 subunit alpha (Homo sapiens)', 'pIC50', 5.23),
  ('Cc1onc(-c2c(Cl)cccc2Cl)c1NC(=O)OCc1c(F)cccc1Cl', 'Sodium channel protein type 5 subunit alpha (Homo sapiens)', 'pIC50', 5.26),
  ('Cc1cccc(C)c1-c1noc(C)c1NC(=O)OCc1c(F)cccc1Cl', 'Sodium channel protein type 5 subunit alpha (Homo sapiens)', 'pIC50', 5.11);

Cc1onc(-c2c(Cl)cccc2Cl)c1NC(=O)OCc1ccc(OC(C)C)nc1 has a reported pIC50 of 5.06

According to the records, this compound CCc1onc(-c2c(Cl)cccc2Cl)c1NC(=O)OCc1c(F)cccc1Cl displays pIC50 of 5.14

The compound listed as Cc1onc(-c2c(Cl)cccc2Cl)c1NC(=O)OCc1ccc(OC2CCCC2)nc1 shows pIC50 equal to 5.87

Quick note, pIC50 for Cc1onc(-c2c(Cl)cccc2Cl)c1NC(=O)OCc1cc(Cl)ccc1Cl landed at 5.58

Entry under test: Cc1onc(-c2c(Cl)cccc2Cl)c1CC(=O)NCc1ccc(OC(C)C)nc1 . Its pIC50 was 5.33

Reported pIC50 for Cc1cccc(C)c1-c1noc(C)c1CC(=O)NCc1cccc(OCCOCC(F)(F)F)n1 was 4.92

Entry Cc1onc(-c2c(Cl)cccc2Cl)c1NC(=O)OCc1ccccc1Cl , pIC50 reported as 5.06

Briefly, pIC50 measured for Cc1onc(-c2c(Cl)cccc2Cl)c1NC(=O)NCc1c(F)cccc1Cl : 5.07
